read-out: solute carrier (SLCO1B1), SLCO1B1 (gene 10599); test: LTEA_HepaRG_SLCO1B1: Life Technologies and Expression Analysis (LTEA) Assay for solute carrier (SLCO1B1) using HepaRG (AID 2283530); details: mRNA level, 48 h; actives raise or lower the signal
Calls of active or inactive are those of the source. Rule for the calls: active = hit-call score of the fitted dose curve at least 0.9, where 1 is the maximum; inactive = score below 0.9.
Select the correct class. Options are 1 (active), -1 (inactive) and nothing else.

SMILES DATA	ASSIGNED CATEGORY
Nc1nc(Cl)nc2c1ncn2[C@H]1C[C@H](O)[C@@H](CO)O1	1
NC=O	-1
COc1ccc(C(=O)Nc2nc3ccccc3c(NCc3ccccc3)c2C#N)cc1	1

Which outcome was assigned to CN(C)C(=O)NC1(c2ccccc2)CCN(CCC[C@]2(c3ccc(Cl)c(Cl)c3)CCCN(C(=O)c3ccccc3)C2)CC1 in this test?
1

// repeat for O=C(N[C@@H](c1ccccc1)[C@@H]1CCCCN1)c1cccc(C(F)(F)F)c1Cl and report
1

What about this compound? CCCC(=O)O
-1

Now consider CCCCCCCCCCCCCCOS(=O)(=O)O .
-1

Cool, now CN(C)CCCN1c2ccccc2Sc2ccc(Cl)cc21
-1

Then what about the compound O=[Si]=O ?
-1

Would you kindly repeat that for Cc1cc(Cc2ccc(N)c(C)c2)ccc1N ?
-1

Ok, now CS(=O)(=O)c1ccc([C@@H](C[C@H]2CCC(=O)C2)C(=O)Nc2cnccn2)cc1Cl
1

Try the compound CC(C)COC(=O)CCCCC(=O)OCC(C)C
-1

----------
test: ATG_CRE_CIS: Attagene CIS-FACTORIAL HepG2 Assay for human cAMP Responsive Element (CRE) binding protein 3 (AID 2282926); details: HepG2 CRE cis-reporter, Attagene multiplexed mRNA; actives raise or lower the signal
The source made the active and inactive calls. Rule for the calls: active = hit-call score of the fitted dose curve at least 0.9, where 1 is the maximum; inactive = score below 0.9.
Reply using exactly one outcome from label 1 (active), label 0 (inactive)

MOLECULE	ASSIGNED CATEGORY
Cc1c(C)c2c(c(C)c1O)CCC(C)(COc1ccc(CC3SC(=O)NC3=O)cc1)O2 (stereo unspecified)	label 0
NC(=Nc1ccccc1)Nc1ccccc1	label 0
CCCCCCC(CCCCCCCCCCC(=O)OCC(COC(C)=O)OC(C)=O)OC(C)=O (stereo unspecified)	label 0

// return assay outcome for O=C1OC(c2ccc(O)cc2)(c2ccc(O)cc2)c2ccccc21
label 1

Field entry: O=[Si]=O
label 0

Now this one: CCCCC(CC)COP(=O)(OCC(CC)CCCC)OCC(CC)CCCC (stereo unspecified)
label 0

----------
target: CCAAT/enhancer-binding protein beta (Homo sapiens); assay: ATG_C_EBP_CIS: Attagene CIS-FACTORIAL HepG2 Assay for human CCAAT/Enhancer Binding Protein (C/EBP) beta (AID 2282927); details: HepG2 Attagene cis-factorial transcription factor reporter; actives raise or lower the signal
Activity calls are given as the source filed them. Rule for the calls: active = hit-call score of the fitted dose curve at least 0.9, where 1 is the maximum; inactive = score below 0.9.
Return exactly one item of True for active, False for inactive

COMPOUND	SYSTEM UNDER TEST	ASSIGNED CATEGORY
O=C1OC(c2ccc(O)cc2)(c2ccc(O)cc2)c2ccccc21	CCAAT/enhancer-binding protein beta (Homo sapiens)	True
Nc1nc(=S)c2[nH]cnc2[nH]1	CCAAT/enhancer-binding protein beta (Homo sapiens)	True
O=C1O[C@H]([C@H](O)CO)C(O)=C1O	CCAAT/enhancer-binding protein beta (Homo sapiens)	False
C=CCCCCCCCCCCCC	CCAAT/enhancer-binding protein beta (Homo sapiens)	False
O=C(NS(=O)(=O)/C=C/c1cccs1)c1ccc(F)cc1Br	CCAAT/enhancer-binding protein beta (Homo sapiens)	False

Answer briefly: the call reported for Cc1cc(SC2=C(O)C[C@@](CCc3ccc(N)cc3)(C(C)C)OC2=O)c(C(C)(C)C)cc1CO in this assay.
False

Again, but for CC1=C(C)S(=O)(=O)CCS1(=O)=O
True

Proceed to CCc1cc(C2=C(C(=O)O)N(c3ccccc3C(F)(F)F)S(=O)(=O)c3ccccc32)cc2c1OCO2
False
